- Test system: Vero cells
- Test method notes: Inhibition of cell growth
- Assay type: cell-based, African green monkey
- Measurement setup: Chlorocebus sabaeus, read-out: ED50 FOR INHIBITING CELL GROWTH IN VERO CELLS
pEC50: −log10 of the molar value.
Assay readout: pEC50

{"Molecule": "CCc1cn([C@@H]2O[C@H](CO)[C@@H](O)[C@@H]2F)c(=O)[nH]c1=O", "Inequality symbol": "<", "Result value": 3.70}
{"Molecule": "Cc1cn([C@@H]2O[C@H](CO)[C@@H](O)[C@@H]2F)c(=O)[nH]c1=O [FMAU, reference compound]", "Inequality symbol": "=", "Result value": 5.55}

====

- System: HL-60 CELLS
- Test method notes: Inhibition of cell growth
- Format: cell-based
- Measurement setup: Homo sapiens, HL-60, read-out: ED50 FOR INHIBITING CELL GROWTH IN HL-60 CELLS

{"Mol smiles": "CCc1cn([C@@H]2O[C@H](CO)[C@@H](O)[C@@H]2F)c(=O)[nH]c1=O", "EC50 / mM": 2.06}

====

- Experimental target: WHV DNA polymerase (Woodchuck hepatitis B virus, UniProt P03160)
- Construct: The reaction was started by addition of the virus particles with 2-mercaptoethanol and Nonidet P 40; from tissue; host or cells: serum pool of five chronically infected woodchucks (Marmota monax); virions purified on sucrose and CsCl gradients
- Sequence (P03160 whole entry): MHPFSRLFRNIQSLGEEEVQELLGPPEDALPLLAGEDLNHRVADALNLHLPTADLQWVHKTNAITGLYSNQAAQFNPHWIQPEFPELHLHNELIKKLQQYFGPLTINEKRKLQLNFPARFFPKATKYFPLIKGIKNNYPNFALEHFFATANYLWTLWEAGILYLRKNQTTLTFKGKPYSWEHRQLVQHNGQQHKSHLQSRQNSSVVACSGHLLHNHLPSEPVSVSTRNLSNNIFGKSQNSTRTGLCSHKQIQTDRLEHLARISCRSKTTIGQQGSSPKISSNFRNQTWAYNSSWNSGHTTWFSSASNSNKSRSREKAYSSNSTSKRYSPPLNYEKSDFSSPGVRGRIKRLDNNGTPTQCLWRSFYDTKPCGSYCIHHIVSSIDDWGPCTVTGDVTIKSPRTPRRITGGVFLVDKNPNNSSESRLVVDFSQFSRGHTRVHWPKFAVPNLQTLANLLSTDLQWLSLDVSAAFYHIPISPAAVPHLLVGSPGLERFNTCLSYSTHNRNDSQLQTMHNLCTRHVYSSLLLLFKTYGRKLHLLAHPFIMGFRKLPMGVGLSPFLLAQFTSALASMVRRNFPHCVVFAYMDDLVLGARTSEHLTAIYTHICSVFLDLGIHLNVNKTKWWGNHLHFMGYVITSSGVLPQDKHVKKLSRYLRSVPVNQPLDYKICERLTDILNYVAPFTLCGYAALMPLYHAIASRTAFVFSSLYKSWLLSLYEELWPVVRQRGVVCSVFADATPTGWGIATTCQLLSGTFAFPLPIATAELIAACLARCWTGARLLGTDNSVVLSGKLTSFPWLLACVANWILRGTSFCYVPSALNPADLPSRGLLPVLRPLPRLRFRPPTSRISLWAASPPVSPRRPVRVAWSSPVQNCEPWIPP
- Test method notes: DNA polymerase assay with purified virus particles
- Assay type: biochemical
- Measurement setup: read-out: ID₅₀ WHV DNA POLYMERASE
pIC50: −log10 of the molar value.

{"Mol smiles": "Cc1cn([C@@H]2O[C@H](COP(=O)(O)OP(=O)(O)OP(=O)(O)O)[C@@H](O)[C@@H]2F)c(=O)[nH]c1=O", "pIC50": 7.30}

====

- Experimental target: HBV DNA polymerase (Hepatitis B virus genotype D subtype ayw, UniProt P03156)
- Construct: virions purified on sucrose and CsCl gradients
- Sequence (P03156 whole entry): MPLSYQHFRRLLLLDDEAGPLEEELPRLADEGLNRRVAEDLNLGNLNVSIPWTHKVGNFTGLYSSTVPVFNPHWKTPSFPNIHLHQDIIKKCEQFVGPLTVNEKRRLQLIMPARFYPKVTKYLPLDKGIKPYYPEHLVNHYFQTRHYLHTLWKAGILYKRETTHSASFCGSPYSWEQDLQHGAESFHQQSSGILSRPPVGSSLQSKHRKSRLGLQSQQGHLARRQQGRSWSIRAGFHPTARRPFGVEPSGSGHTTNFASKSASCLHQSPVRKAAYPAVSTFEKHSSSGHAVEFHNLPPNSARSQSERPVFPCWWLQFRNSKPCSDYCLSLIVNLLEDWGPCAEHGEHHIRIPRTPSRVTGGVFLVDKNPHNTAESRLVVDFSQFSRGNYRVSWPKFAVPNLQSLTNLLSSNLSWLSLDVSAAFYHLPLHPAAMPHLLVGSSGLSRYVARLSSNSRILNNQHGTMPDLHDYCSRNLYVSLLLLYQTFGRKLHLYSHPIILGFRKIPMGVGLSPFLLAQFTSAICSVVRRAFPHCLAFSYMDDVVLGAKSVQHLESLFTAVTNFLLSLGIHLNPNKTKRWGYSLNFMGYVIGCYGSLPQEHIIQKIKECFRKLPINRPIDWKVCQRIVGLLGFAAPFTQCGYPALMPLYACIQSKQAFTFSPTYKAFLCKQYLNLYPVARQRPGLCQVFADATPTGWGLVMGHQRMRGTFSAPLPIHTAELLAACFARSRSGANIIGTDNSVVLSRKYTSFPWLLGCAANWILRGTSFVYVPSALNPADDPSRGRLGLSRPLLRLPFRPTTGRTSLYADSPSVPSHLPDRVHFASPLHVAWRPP
- Test method notes: DNA polymerase assay with purified virus particles
- Measurement setup: concentration of inhibitor giving a 50% inhibition of DNA polymerase activity; read-out: ID₅₀ HBV DNA POLYMERASE
Assay readout: IC50 (nM)

{"Compound": "O=c1[nH]c(=O)n([C@H]2C[C@H](O)[C@@H](COP(=O)(O)OP(=O)(O)OP(=O)(O)O)O2)cc1/C=C/Br [BVdUTP]", "Experimental target": "HBV DNA polymerase (Hepatitis B virus genotype D subtype ayw, UniProt P03156)", "Assay readout": "IC50", "Result value": 250}
{"Compound": "Nc1nc2c(ncn2COCCOP(=O)(O)OP(=O)(O)OP(=O)(O)O)c(=O)[nH]1 [ACVTP]", "Experimental target": "HBV DNA polymerase (Hepatitis B virus genotype D subtype ayw, UniProt P03156)", "Assay readout": "IC50", "Result value": 900}
{"Compound": "Cc1cn([C@@H]2O[C@H](COP(=O)(O)OP(=O)(O)OP(=O)(O)O)[C@@H](O)[C@@H]2O)c(=O)[nH]c1=O [ara-TTP]", "Experimental target": "HBV DNA polymerase (Hepatitis B virus genotype D subtype ayw, UniProt P03156)", "Assay readout": "IC50", "Result value": 300}
{"Compound": "Cc1cn([C@@H]2O[C@H](COP(=O)(O)OP(=O)(O)OP(=O)(O)O)[C@@H](O)[C@@H]2F)c(=O)[nH]c1=O [FMAU-TP]", "Experimental target": "HBV DNA polymerase (Hepatitis B virus genotype D subtype ayw, UniProt P03156)", "Assay readout": "IC50", "Result value": 25}
{"Compound": "Nc1ccn([C@@H]2O[C@H](COP(=O)(O)OP(=O)(O)OP(=O)(O)O)[C@@H](O)[C@@H]2O)c(=O)n1 [ara-CTP]", "Experimental target": "HBV DNA polymerase (Hepatitis B virus genotype D subtype ayw, UniProt P03156)", "Assay readout": "IC50", "Result value": 1100}
